target-of-assay: T1, human Trop2 on cells (human, UniProt P09758 27-323)
T1 construct: whole, on cells; also called hTrop2; 293T-human Trop2 cells
T1 sequence (looked up): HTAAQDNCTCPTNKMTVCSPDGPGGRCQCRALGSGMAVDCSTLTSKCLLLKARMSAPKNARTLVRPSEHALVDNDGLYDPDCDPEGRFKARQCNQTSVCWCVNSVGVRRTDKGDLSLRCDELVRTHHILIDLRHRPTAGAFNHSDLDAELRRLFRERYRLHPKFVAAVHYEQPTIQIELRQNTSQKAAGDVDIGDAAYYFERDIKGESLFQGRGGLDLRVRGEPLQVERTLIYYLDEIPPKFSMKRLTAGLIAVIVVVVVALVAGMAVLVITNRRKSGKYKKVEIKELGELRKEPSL
assay-method-text: flow cytometry on 293T-human Trop2 cells
pEC50: −log10 of the molar value.

>  <binder>
PR001134 (antibody, human IgG1, kappa, V domains shown, fully human IgG1/kappa; also called antibody No. (6)) VH: QVQLVESGGGVVQPGRSLRVSCIASGFFFSSYGMHWVRQAPGKGLEWVAVIWYDGSNEDYVDSVKGRFTISRDNSKNTLYLQMNSLRGEDTAMYYCARGGYNSGWWAFDIWGQGTMVTVSS VL: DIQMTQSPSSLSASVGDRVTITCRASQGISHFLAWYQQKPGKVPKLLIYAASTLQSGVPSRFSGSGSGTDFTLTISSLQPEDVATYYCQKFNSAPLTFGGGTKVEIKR

>  <pEC50>
9.19

$$$$
>  <binder>
PR001151 (antibody, human IgG1, kappa, V domains shown, fully human IgG1/kappa; also called antibody No. (14)) VH: QVQLVESGGGVVQPGRSLRLSCAASGFTFSHYGMHWVRQAPGKGLEWVAVIWYDGIKKDYVESVKGRFTISRDNSKNTLYLQMNRLRAEDTAVYYCARDGGFGELNYYGLDVWGQGTTVTVSS VL: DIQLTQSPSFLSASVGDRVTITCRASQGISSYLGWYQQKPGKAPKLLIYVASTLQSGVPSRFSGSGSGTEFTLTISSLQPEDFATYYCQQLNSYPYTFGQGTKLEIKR

>  <pEC50>
8.79

$$$$
>  <binder>
PR001159 (antibody, human IgG1, kappa, V domains shown, fully human IgG1/kappa; also called antibody No. (21)) VH: QVQLVESGGGVVQPGRSLRLSCEASGFTFSHYGMHWVRQAPGKGLEWVAVIWYDGIKTNYVESVKGRFTISRDNSKNTLNLQMNRLRAEDTAVYYCARDGGFGESNYYGLDVWGQGTTVTVSS VL: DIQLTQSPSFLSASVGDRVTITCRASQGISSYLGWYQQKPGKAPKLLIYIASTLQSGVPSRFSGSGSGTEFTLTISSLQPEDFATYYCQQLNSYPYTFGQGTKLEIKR

>  <pEC50>
9.01

$$$$
>  <binder>
PR001143 (antibody, human IgG1, kappa, V domains shown, fully human IgG1/kappa; also called antibody No. (10)) VH: QVQLVESGGGVVQPGRSLRVSCAASGFIFSTYGMHWVRQAPGKGLEWVAVIWYDGSNEDYVDSVKGRFTISRDNSKNTLYLQMNSLRGEDTAVYYCARGGYNSGWWAFDVWGQGTLVTVSS VL: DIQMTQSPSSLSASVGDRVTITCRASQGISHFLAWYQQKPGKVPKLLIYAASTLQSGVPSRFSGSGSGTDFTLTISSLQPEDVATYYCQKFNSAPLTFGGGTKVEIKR

>  <pEC50>
9.10

$$$$
>  <binder>
PR001171 (antibody, human IgG1, kappa, V domains shown, fully human IgG1/kappa; also called antibody No. (30)) VH: QVQLVESGGGVVQPGRSLRLSCAASGFTFSHYGMHWVRQAPGKGLEWVAVIWYDGIKKNYVESVKGRFTISRDNSKNTLNLQMNRLRAEDTAVYYCARDGGFGESNYYGLDVWGQGTTVTVSS VL: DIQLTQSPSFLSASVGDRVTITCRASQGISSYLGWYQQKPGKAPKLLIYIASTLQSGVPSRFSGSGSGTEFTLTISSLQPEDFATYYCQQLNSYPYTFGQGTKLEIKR

>  <pEC50>
9.00

$$$$
